Attribution: paper PMC12157126

Experiment: In situ brain/choroid plexus perfusion with capillary depletion: CNS uptake of [3H]-arginine in absence and presence of transporter inhibitors
Assay type: in vivo, adult male BALB/c mice
Conditions: male, BALB/c, mouse, whole brain homogenate, […], Arginine, tissue/plasma ratio, homogenate; + 4mM BCH; 10 mins, 5ml/min; per mouse
experimental-readout: Kp at 10 min

- compound: "N=C(N)NCCC[C@H](N)C(=O)O [[^3H]-arginine, L-arginine]"
  measured-value: 0.353

----------
Assay: In situ brain/choroid plexus perfusion with capillary depletion: CNS uptake of [3H]-arginine in absence and presence of transporter inhibitors
Format: in vivo, adult male BALB/c mice
Settings: male, BALB/c, mouse, cerebellum, […], Difference (Arginine - Sucrose), cerebellum; + 4mM BCH; 10 mins, 5ml/min; per mouse
experimental-readout: Kp at 10 min

- molecule: "N=C(N)NCCC[C@H](N)C(=O)O [[^3H]-arginine, L-arginine]"
  experimental-readout: "Kp at 10 min"
  measured-value: 0.575

----------
Test: In situ brain/choroid plexus perfusion with capillary depletion: CNS uptake of [3H]-arginine in absence and presence of transporter inhibitors
Format: in vivo, adult male BALB/c mice
Conditions: male, BALB/c, mouse, choroid plexus, […], Difference (Arginine - Sucrose), choroid plexus; + 4mM BCH; 10 mins, 5ml/min; per mouse
experimental-readout: Kp at 10 min

- molecule: "N=C(N)NCCC[C@H](N)C(=O)O [[^3H]-arginine, L-arginine]"
  experimental-readout: "Kp at 10 min"
  measured-value: 1.85

----------
Assay: In situ brain/choroid plexus perfusion with capillary depletion: CNS uptake of [3H]-arginine in absence and presence of transporter inhibitors
Assay type: in vivo, adult male BALB/c mice
Conditions: male, BALB/c, mouse, cerebellum, with 20 mM L-homoarginine, Arginine, tissue/plasma ratio, cerebellum; + 20mM L-Homoarginine; 10 mins, 5ml/min; per mouse

- compound: "N=C(N)NCCC[C@H](N)C(=O)O [[^3H]-arginine, L-arginine]"
  Kp at 10 min, […]: 0.0312

----------
Assay: In situ brain/choroid plexus perfusion with capillary depletion: CNS uptake of [3H]-arginine in absence and presence of transporter inhibitors
Assay type: in vivo, adult male BALB/c mice
Details: male, BALB/c, mouse, frontal cortex, […], Arginine, tissue/plasma ratio, frontal cortex; + 4mM BCH; 10 mins, 5ml/min; per mouse

- molecule: "N=C(N)NCCC[C@H](N)C(=O)O [[^3H]-arginine, L-arginine]"
  Kp at 10 min: 0.649

----------
Test: In situ brain/choroid plexus perfusion with capillary depletion: CNS uptake of [3H]-arginine in absence and presence of transporter inhibitors
Format: in vivo, adult male BALB/c mice
Conditions: male, BALB/c, mouse, frontal cortex, […], with L-homoarginine 20 mM in the artificial plasma, Arginine, tissue/plasma ratio, frontal cortex; + 20mM L-Homoarginine; 10 mins, 5ml/min; per mouse

- compound: "N=C(N)NCCC[C@H](N)C(=O)O [[^3H]-arginine, L-arginine]"
  Kp at 10 min: 0.0351

----------
Assay: In situ brain/choroid plexus perfusion with capillary depletion: CNS uptake of [3H]-arginine in absence and presence of transporter inhibitors
Assay type: in vivo, adult male BALB/c mice
Conditions: male, BALB/c, mouse, whole brain homogenate, […], Difference (Arginine - Sucrose), homogenate; + 4mM BCH; 10 mins, 5ml/min; per mouse

- molecule: "N=C(N)NCCC[C@H](N)C(=O)O [[^3H]-arginine, L-arginine]"
  Kp at 10 min: 0.332
